B1: Cryptochrome-1 (Arabidopsis thaliana (Mouse-ear cress)), Q43125 (parent)
chain: MSGSVSGCGSGGCSIVWFRRDLRVEDNPALAAAVRAGPVIALFVWAPEEEGHYHPGRVSRWWLKNSLAQLDSSLRSLGTCLITKRSTDSVASLLDVVKSTGASQIFFNHLYDPLSLVRDHRAKDVLTAQGIAVRSFNADLLYEPWEVTDELGRPFSMFAAFWERCLSMPYDPESPLLPPKKIISGDVSKCVADPLVFEDDSEKGSNALLARAWSPGWSNGDKALTTFINGPLLEYSKNRRKADSATTSFLSPHLHFGEVSVRKVFHLVRIKQVAWANEGNEAGEESVNLFLKSIGLREYSRYISFNHPYSHERPLLGHLKFFPWAVDENYFKAWRQGRTGYPLVDAGMRELWATGWLHDRIRVVVSSFFVKVLQLPWRWGMKYFWDTLLDADLESDALGWQYITGTLPDSREFDRIDNPQFEGYKFDPNGEYVRRWLPELSRLPTDWIHHPWNAPESVLQAAGIELGSNYPLPIVGLDEAKARLHEALSQMWQLEAASRAAIENGSEEGLGDSAEVEEAPIEFPRDITMEETEPTRLNPNRRYEDQMVPSITSSLIRPEEDEESSLNLRNSVGDSRAEVPRNMVNTNQAQQRRAEPASNQVTAMIPEFNIRIVAESTEDSTAESSSSGRRERSGGIVPEWSPGYSEQFPSEENGIGGGSTTSSYLQNHHEILNWRRLSQTG
partner: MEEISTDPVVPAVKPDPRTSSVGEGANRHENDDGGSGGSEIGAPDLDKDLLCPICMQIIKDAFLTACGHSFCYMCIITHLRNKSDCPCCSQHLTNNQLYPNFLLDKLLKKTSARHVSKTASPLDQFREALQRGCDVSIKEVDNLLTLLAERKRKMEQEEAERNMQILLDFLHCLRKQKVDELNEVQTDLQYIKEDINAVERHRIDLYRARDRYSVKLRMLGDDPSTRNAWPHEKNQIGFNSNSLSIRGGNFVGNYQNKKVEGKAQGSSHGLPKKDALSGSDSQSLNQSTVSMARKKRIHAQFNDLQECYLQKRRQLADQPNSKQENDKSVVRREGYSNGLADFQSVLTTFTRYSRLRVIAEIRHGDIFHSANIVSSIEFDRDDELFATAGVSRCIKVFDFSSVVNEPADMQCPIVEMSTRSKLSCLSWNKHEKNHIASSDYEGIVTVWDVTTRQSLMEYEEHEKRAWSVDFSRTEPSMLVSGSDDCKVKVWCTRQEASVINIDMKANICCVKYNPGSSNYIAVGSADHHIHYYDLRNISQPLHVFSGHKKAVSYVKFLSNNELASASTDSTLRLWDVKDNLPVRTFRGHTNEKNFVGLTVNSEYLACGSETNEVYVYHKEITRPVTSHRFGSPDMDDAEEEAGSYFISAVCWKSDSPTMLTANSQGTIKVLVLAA

Variants of: B1
Settings: with cop1_arath COP1, P43254
Property: effect of a mutation on the interaction

   variant_code                     val
0         E515K  decreasing interaction
1         R576K  decreasing interaction
2         P549L  decreasing interaction
3         R611K  decreasing interaction
4         E531K  decreasing interaction
5         R581K  decreasing interaction

Source listed as IntAct's records for PubMed 11752373.
